# measurementTarget: recombinant human beta tryptase (Homo sapiens)
# Construct: made in house; host or cells: yeast cells
# protocol: beta-Tryptase inhibition, chromogenic enzyme assay (substrate S2366, read at 405 nm)
# Assay type: biochemical
# testParameters: Tryptase Ki (nM), additional value in parentheses tagged "719" (code not explained)
Where a name gives a salt, the structure may show the parent alone.
resultType: Ki (nM)

[
  {
    "compound": "COCCn1cc(C(=O)N2CCC(c3cc(CN)ccc3F)CC2)c2c(C(=O)N(C)C)cccc21 [Example 91, hydrochloride]",
    "observedResult": 54
  }
]

====

# measurementTarget: recombinant human beta tryptase (Homo sapiens)
# Construct: made in house; host or cells: yeast cells
# protocol: beta-Tryptase inhibition, chromogenic enzyme assay (substrate S2366, read at 405 nm)
# Assay type: biochemical
# testParameters: Tryptase Ki, cell prints its own unit uM under a head in nM
Where a name gives a salt, the structure may show the parent alone.
resultType: Ki

[
  {
    "molecule": "COCCn1cc(C(=O)N2CCC(c3cc(CN)ccc3OCC(=O)O)CC2)c2cccc(C)c21 [Example 33, hydrochloride]",
    "observedResult": "> 10 µM"
  }
]

====

Below, each entry is listed alongside its reported Ki.
# measurementTarget: recombinant human beta tryptase (Homo sapiens, UniProt P20231)
# Construct: made in house; host or cells: yeast cells
# Sequence (P20231 31-275): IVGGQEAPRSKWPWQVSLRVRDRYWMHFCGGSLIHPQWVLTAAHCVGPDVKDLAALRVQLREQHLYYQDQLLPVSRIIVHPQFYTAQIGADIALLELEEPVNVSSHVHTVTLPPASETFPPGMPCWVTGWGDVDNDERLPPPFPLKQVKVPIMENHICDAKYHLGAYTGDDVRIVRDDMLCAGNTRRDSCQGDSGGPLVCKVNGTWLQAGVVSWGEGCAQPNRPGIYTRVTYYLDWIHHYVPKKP
# protocol: beta-Tryptase inhibition, chromogenic enzyme assay (substrate S2366, read at 405 nm)
# Type: biochemical
# testParameters: Ki calculated from IC50: Ki=IC50/(1+[Substrate]/Km); 0.5 mM substrate, room temperature; read-out: Tryptase Ki
Structures can show the parent of a compound that is named as a salt.
resultType: Ki (µM)

[
  {
    "molecule": "COCCn1cc(C(=O)N2CCC(c3cc(CN)ccc3F)CC2)c2c(-c3ccnn3C)cccc21 [Example 89, dihydrochloride]",
    "measurementTarget": "recombinant human beta tryptase (Homo sapiens, UniProt P20231)",
    "readingUnit": "µM",
    "observedResult": 0.011
  },
  {
    "molecule": "COCCn1cc(C(=O)N2CCC(c3cc(CN)ccc3F)CC2)c2c(-c3ccnc(OC)c3)cccc21 [Example 85, dihydrochloride]",
    "measurementTarget": "recombinant human beta tryptase (Homo sapiens, UniProt P20231)",
    "readingUnit": "µM",
    "observedResult": 0.009
  },
  {
    "molecule": "NCc1ccc(F)c(C2CCN(C(=O)c3cn(CCN4CCCCC4)c4ccccc34)CC2)c1 [Example 41, dihydrochloride]",
    "measurementTarget": "recombinant human beta tryptase (Homo sapiens, UniProt P20231)",
    "readingUnit": "µM",
    "observedResult": 0.062
  },
  {
    "molecule": "COCCn1cc(C(=O)N2CCC(c3cc(CN)ccc3F)CC2)c2c(-c3ccnc(C)c3)cccc21 [Example 83, dihydrochloride]",
    "measurementTarget": "recombinant human beta tryptase (Homo sapiens, UniProt P20231)",
    "readingUnit": "µM",
    "observedResult": 0.005
  },
  {
    "molecule": "COCCn1cc(C(=O)N2CCC(c3cc(CN)ccc3F)CC2)c2c(-c3cccnc3)cccc21 [Example 73, dihydrochloride]",
    "measurementTarget": "recombinant human beta tryptase (Homo sapiens, UniProt P20231)",
    "readingUnit": "µM",
    "observedResult": 0.007
  },
  {
    "molecule": "Cc1cccc2c(C(=O)N3CCC(c4cc(CN)ccc4F)CC3)cn(CCn3ccnc3)c12 [Example 62, dihydrochloride]",
    "measurementTarget": "recombinant human beta tryptase (Homo sapiens, UniProt P20231)",
    "readingUnit": "µM",
    "observedResult": 0.022
  },
  {
    "molecule": "COCCn1cc(C(=O)N2CCC(c3cccc(CN)n3)CC2)c2cccc(C)c21 [Example 113, dihydrochloride]",
    "measurementTarget": "recombinant human beta tryptase (Homo sapiens, UniProt P20231)",
    "readingUnit": "µM",
    "observedResult": 0.656
  },
  {
    "molecule": "COCCn1cc(C(=O)N2CCC(c3cc(CN)ccc3F)CC2)c2c(-c3cncc(Cl)c3)cccc21 [Example 65, dihydrochloride]",
    "measurementTarget": "recombinant human beta tryptase (Homo sapiens, UniProt P20231)",
    "readingUnit": "µM",
    "observedResult": 0.011
  },
  {
    "molecule": "NCc1ccc(F)c(C2CCN(C(=O)c3cn(CCN4CCCC4)c4ccccc34)CC2)c1 [Example 38, dihydrochloride]",
    "measurementTarget": "recombinant human beta tryptase (Homo sapiens, UniProt P20231)",
    "readingUnit": "µM",
    "observedResult": 0.066
  },
  {
    "molecule": "CCN(CC)CCn1cc(C(=O)N2CCC(c3cc(CN)ccc3F)CC2)c2ccccc21 [Example 37, dihydrochloride]",
    "measurementTarget": "recombinant human beta tryptase (Homo sapiens, UniProt P20231)",
    "readingUnit": "µM",
    "observedResult": 0.087
  },
  {
    "molecule": "COCCn1cc(C(=O)N2CCC(c3cc(CN)ccc3F)CC2)c2c(Cl)cccc21 [Example 42]",
    "measurementTarget": "recombinant human beta tryptase (Homo sapiens, UniProt P20231)",
    "readingUnit": "µM",
    "observedResult": 0.123
  },
  {
    "molecule": "COCCn1cc(C(=O)N2CCC(c3cc(CN)ccc3F)CC2)c2c(C(=O)O)cccc21 [Example 109, trifluoroacetate]",
    "measurementTarget": "recombinant human beta tryptase (Homo sapiens, UniProt P20231)",
    "readingUnit": "µM",
    "observedResult": 0.142
  },
  {
    "molecule": "CCCn1cc(-c2cccc3c2c(C(=O)N2CCC(c4cc(CN)ccc4F)CC2)cn3CCOC(F)(F)F)cn1 [Example 93, dihydrochloride]",
    "measurementTarget": "recombinant human beta tryptase (Homo sapiens, UniProt P20231)",
    "readingUnit": "µM",
    "observedResult": 0.16
  },
  {
    "molecule": "NCc1ccc(F)c(C2CCN(C(=O)c3cn(CCOC(F)(F)F)c4cccc(-c5ccncc5)c34)CC2)c1 [Example 78, dihydrochloride]",
    "measurementTarget": "recombinant human beta tryptase (Homo sapiens, UniProt P20231)",
    "readingUnit": "µM",
    "observedResult": 0.117
  }
]
